From: ChEMBL document CHEMBL1132406

Please provide measured IC50 for the entries that follow.
# Target Under Test: C-X-C chemokine receptor type 4 (Homo sapiens)
# Sequence (P61073 whole entry): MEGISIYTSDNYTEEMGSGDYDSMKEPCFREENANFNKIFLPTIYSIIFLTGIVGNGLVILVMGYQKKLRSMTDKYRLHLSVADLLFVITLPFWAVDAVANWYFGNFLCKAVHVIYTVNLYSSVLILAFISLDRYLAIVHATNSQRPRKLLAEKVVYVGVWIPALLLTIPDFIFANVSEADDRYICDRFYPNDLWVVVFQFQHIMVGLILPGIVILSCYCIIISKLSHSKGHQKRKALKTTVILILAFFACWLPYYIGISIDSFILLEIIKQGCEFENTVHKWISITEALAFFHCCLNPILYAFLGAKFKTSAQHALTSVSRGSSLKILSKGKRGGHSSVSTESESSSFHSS
# Protocol Text: Inhibitory activity against CXCR4-specific monoclonal antibody 12G5 (mAb-12G5) binding to human chemokinin receptor CXCR4 in lymphocytic SUP-T1 cells
Numbers only, in µM.

Reference set (3 entries):
>>> endpoint_value("c1cc2nc(c1)CCNCCN(Cc1ccc(CN3CCNCCc4cccc(n4)CCNCC3)cc1)CCNCC2")
0.001
>>> endpoint_value("c1cc(CN2CCCNCCNCCNCCC2)ccc1CN1CCCNCCNCCNCCC1")
0.067
>>> endpoint_value("Clc1cc2nc(c1)CNCCCN(Cc1ccc(CN3CCCNCc4cc(Cl)cc(n4)CNCCC3)cc1)CCCNC2")
5.74

Then this compound:
Recall the reported IC50 of c1cc2nc(c1)CNCCN(Cc1ccc(CN3CCNCc4cccc(n4)CNCC3)cc1)CCNC2 on C-X-C chemokine receptor type 4 (Homo sapiens) and write it down.
4.36
